Biological target: T1, Human CD228 protein (human, UniProt P08582 20-708, limits assumed)
T1 construct: Recombinant protein made in CHO cells, purified over a Ni column; The printed entry begins with the leader (MRGPSG...) and ends with ten His; also called hCD228; CD228-His protein
T1 sequence: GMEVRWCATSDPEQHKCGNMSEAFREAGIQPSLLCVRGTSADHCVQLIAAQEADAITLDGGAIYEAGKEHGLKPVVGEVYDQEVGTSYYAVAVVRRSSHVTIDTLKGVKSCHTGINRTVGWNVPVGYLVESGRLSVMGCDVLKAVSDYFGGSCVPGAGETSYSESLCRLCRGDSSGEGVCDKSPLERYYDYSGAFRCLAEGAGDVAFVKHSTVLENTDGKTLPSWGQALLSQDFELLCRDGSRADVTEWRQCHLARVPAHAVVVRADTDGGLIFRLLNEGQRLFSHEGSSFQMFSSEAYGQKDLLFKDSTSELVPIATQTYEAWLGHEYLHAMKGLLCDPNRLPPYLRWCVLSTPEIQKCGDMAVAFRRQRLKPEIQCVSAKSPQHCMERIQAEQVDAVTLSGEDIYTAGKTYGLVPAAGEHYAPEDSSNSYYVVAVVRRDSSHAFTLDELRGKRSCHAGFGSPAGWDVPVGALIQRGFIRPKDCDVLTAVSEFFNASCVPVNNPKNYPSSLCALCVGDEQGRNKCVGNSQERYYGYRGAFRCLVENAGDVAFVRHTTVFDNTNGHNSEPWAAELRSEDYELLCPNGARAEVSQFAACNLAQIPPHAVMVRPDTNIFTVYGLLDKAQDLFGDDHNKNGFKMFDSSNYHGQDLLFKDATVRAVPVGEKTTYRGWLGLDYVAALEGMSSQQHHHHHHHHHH
Assay: Octet competition on His-chip CD228; competitor: CA67
competition (1-response value/blank value) values by entry
# unit: % | format: bare number

>  <binder>
reference antibody hL49 (antibody, human IgG1, kappa, V domains shown, also called H149; hL49 analogy) VH: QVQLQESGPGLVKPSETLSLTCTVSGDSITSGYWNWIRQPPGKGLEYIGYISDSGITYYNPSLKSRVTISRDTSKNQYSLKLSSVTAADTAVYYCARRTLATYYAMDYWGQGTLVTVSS VL: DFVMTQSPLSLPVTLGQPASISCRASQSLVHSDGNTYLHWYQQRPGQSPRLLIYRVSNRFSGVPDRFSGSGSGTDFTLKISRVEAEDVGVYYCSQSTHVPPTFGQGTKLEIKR

>  <scale unit>
%

>  <numeric result>
-7

$$$$
>  <binder>
CA13 (antibody, human IgG1, kappa, V domains shown, Intact IgG1 from fully human antibody-transgenic mice) VH: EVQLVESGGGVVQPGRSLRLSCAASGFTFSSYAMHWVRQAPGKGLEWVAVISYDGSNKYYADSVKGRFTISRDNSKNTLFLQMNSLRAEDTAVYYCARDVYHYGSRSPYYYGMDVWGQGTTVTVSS VL: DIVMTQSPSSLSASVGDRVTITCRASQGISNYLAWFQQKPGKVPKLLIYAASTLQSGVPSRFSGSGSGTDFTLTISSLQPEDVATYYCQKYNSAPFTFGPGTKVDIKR

>  <scale unit>
%

>  <numeric result>
100

$$$$

Continue with the next binder.
Give the measured competition (1-response value/blank value) for CA185 (antibody, human IgG1, kappa, V domains shown, Intact IgG1) VH: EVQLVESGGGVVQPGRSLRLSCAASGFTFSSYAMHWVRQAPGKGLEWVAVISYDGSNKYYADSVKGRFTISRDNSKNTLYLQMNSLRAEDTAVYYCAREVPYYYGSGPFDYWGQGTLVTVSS VL: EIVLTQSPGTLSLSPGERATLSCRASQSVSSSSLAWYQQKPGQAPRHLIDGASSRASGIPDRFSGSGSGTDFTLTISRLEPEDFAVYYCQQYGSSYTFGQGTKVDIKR
99
